Molecular target: JAK1 JH1 catalytic (human) (UniProt P23458)
Sequence (P23458 whole entry, looked up): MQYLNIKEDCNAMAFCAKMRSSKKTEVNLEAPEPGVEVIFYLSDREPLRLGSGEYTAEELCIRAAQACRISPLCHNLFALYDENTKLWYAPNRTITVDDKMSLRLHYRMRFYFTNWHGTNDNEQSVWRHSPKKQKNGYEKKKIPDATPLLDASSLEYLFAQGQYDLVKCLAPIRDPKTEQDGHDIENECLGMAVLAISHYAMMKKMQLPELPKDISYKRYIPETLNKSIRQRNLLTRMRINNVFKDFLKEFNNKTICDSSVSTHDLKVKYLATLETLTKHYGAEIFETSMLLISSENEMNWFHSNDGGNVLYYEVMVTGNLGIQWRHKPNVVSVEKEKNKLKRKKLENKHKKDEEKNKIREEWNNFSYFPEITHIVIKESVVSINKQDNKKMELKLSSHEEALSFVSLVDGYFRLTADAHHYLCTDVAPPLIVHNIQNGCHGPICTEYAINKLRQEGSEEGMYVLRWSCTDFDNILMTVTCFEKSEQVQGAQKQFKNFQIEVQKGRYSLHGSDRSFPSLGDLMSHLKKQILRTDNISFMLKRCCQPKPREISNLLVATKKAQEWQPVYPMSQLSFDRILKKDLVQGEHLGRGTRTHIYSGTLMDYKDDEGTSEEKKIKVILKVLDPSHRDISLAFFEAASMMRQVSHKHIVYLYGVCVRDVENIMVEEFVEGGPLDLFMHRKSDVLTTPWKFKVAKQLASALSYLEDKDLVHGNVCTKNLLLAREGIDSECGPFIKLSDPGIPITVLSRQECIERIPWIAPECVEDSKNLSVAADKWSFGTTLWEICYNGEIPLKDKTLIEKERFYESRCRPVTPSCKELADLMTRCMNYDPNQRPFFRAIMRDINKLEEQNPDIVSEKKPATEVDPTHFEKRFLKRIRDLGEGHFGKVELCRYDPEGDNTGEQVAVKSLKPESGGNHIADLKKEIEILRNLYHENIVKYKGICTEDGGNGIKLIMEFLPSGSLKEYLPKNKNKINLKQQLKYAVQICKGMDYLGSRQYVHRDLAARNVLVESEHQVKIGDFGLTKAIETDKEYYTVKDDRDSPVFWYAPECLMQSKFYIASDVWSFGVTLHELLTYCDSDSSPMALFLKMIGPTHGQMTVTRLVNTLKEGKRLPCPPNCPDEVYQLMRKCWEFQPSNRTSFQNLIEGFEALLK
Assay: KINOMEscan competition binding
Conditions: compound 10.0 µM
Below, each of the compounds is paired with its reported kinase still bound, per cent of control value.

- Compound: "C[C@@H](Oc1cc(-n2cnc3ccc(CN4CCN(C)CC4)cc32)sc1C(N)=O)c1ccccc1C(F)(F)F"
  kinase still bound, per cent of control: "100%"
- Compound: "C=CC(=O)Nc1cccc(Nc2nc(N[C@H]3CC[C@H](N(C)C)CC3)nc3c2ncn3C(C)C)c1"
  kinase still bound, per cent of control: "88%"
- Compound: "C=CC(=O)Nc1cccc(Oc2nc(Nc3ccc(N4CCN(C)CC4)cc3OC)ncc2Cl)c1"
  kinase still bound, per cent of control: "100%"
- Compound: "Cc1ccc(NC(=O)c2cccc(C(C)(C)C#N)c2)cc1Nc1ccc2ncn(C)c(=O)c2c1"
  kinase still bound, per cent of control: "100%"
- Compound: "COc1cc(C(=O)NC2CCN(C)CC2)ccc1Nc1ncc2c(n1)N(C1CCCC1)C(C)CC(=O)N2C (centres undefined)"
  kinase still bound, per cent of control: "100%"
- Compound: "CCN1CCN(Cc2ccc(Nc3ncc4c(n3)N(C)c3ccccc3C(=O)N4C)cc2C(F)(F)F)CC1"
  kinase still bound, per cent of control: "93%"
- Compound: "CCOc1cc2ncc(C#N)c(Nc3ccc(OCc4ccccn4)c(Cl)c3)c2cc1NC(=O)/C=C/CN(C)C"
  kinase still bound, per cent of control: "83%"
- Compound: "OCCCNc1cc(-c2ccnc(Nc3cccc(Cl)c3)n2)ccn1"
  kinase still bound, per cent of control: "100%"
- Compound: "Cc1cc([C@@H](C)Nc2ccccc2C(=O)O)c2nc(N3CCOCC3)cc(=O)n2c1"
  kinase still bound, per cent of control: "100%"
- Compound: "O=C(O)c1ccc(Nc2ncc3c(n2)-c2ccc(Cl)cc2C(c2c(F)cccc2F)=NC3)cc1"
  kinase still bound, per cent of control: "90%"
- Compound: "Cn1c(=O)n(-c2ccc(C(C)(C)C#N)cc2)c2c3cc(-c4cnc5ccccc5c4)ccc3ncc21"
  kinase still bound, per cent of control: "16%"
- Compound: "O=C1Nc2ccc(I)cc2/C1=C/c1cc(Br)c(O)c(Br)c1"
  kinase still bound, per cent of control: "100%"
- Compound: "Cc1ccc(C(=O)Nc2cccc(C(F)(F)F)c2)cc1Nc1cncc(C(N)=O)c1"
  kinase still bound, per cent of control: "100%"
- Compound: "O=C(NC1CC1)c1cccc(-c2ccc3c(NC(=O)C4CC4)n[nH]c3c2)c1"
  kinase still bound, per cent of control: "100%"
- Compound: "CCC(=O)N1CCN(c2ccc(-n3c(=O)ccc4cnc5ccc(-c6cnc7ccccc7c6)cc5c43)cc2C(F)(F)F)CC1"
  kinase still bound, per cent of control: "82%"
- Compound: "C=CC(=O)Nc1cc(NC(=O)c2ccc(C)c(NC(=O)c3ccno3)c2)cc(C(F)(F)F)c1"
  kinase still bound, per cent of control: "100%"
- Compound: "Nc1ccc(-c2ccc3ncc4ccc(=O)n(-c5cccc(C(F)(F)F)c5)c4c3c2)cn1"
  kinase still bound, per cent of control: "92%"
- Compound: "N#Cc1c(NC(=O)c2cccc3ccccc23)sc2c1CCCC2"
  kinase still bound, per cent of control: "78%"
- Compound: "CC[C@@H]1C(=O)N(C)c2cnc(Nc3ccc(C(=O)NC4CCN(C)CC4)cc3OC)nc2N1C1CCCC1"
  kinase still bound, per cent of control: "100%"
